Kindly supply the reported growth values for the records listed here.
System: BT-549 breast
assay method text: NCI-60 one-dose screen, 48 h (100 = growth as untreated, 0 = no growth, -100 = all killed)
test parameters: 10 µM unless noted
The panel holds about 83,000 compounds, 20% with a hit somewhere; the sample as a whole holds those more often.
Give the value in % but do not write % after it.

Problem: Reported growth, compound `COc1cccc(NC(=O)c2sc3nc(C)c(C(=O)c4ccccc4)cc3c2N)c1` : ____
Solution: 91.8

Problem: Reported growth, compound `Nc1c(C(=O)c2ccc(Cl)cc2)sc(Nc2ccccc2)c1-c1nc2ccccc2s1` : ____
Solution: 55.2

Problem: Reported growth, compound `C1=C2CCCC3=Cc4ccccc4OC23Oc2ccccc21` : ____
Solution: 26.4

Problem: Reported growth, compound `C#C[C@]1(O)CC[C@H]2[C@@H]3CC=C4c5sc(-c6cccc(C)c6)nc5CC[C@]4(C)[C@H]3CC[C@@]21C` : ____
Solution: 71.5

Problem: Reported growth, compound `CNC1=C(Br)C(=O)c2c(C(=O)OC)c(C)nc(C)c2C1=O` : ____
Solution: 104

----------
Kindly supply the reported growth values for the records listed here.
Tested on: SF-268 CNS
assay method text: NCI-60 one-dose screen, 48 h (100 = growth as untreated, 0 = no growth, -100 = all killed)
test parameters: 10 µM unless noted
Compounds without any hit were thinned out: in the full panel of roughly 83,000, 20% have a hit.
Give the value in % but do not write % after it.

Problem: Reported growth, compound `COc1ccc(NC(=O)CSc2oc(-c3ccccc3)nc2S(=O)(=O)c2ccc(Cl)cc2)c(OC)c1` : ____
Solution: 47.1

Problem: Reported growth, compound COc1cc2c(c(OC)c1OC)C(=O)CC(c1cccc(C(=O)Nc3ccc(Br)cc3)c1)O2 (centres undefined) : ____
Solution: 64.2

Problem: Reported growth, compound `C=C1C(=O)O[C@H]2[C@H]1CC/C(COC(=O)NCc1ccc(Cn3c(=O)sn(CCCC)c3=O)cc1)=C\CC[C@@]1(C)O[C@@H]21` : ____
Solution: 82.4

Problem: Reported growth, compound `C#C[C@]1(O)CC[C@H]2[C@@H]3CC=C4c5sc(-c6cccc(C)c6)nc5CC[C@]4(C)[C@H]3CC[C@@]21C` : ____
Solution: 60.8

Problem: Reported growth, compound `Cc1cc([N+](=O)[O-])ccc1NC(=O)c1ccc2c(c1)nc(-c1ccccc1)n2C1CCCCC1` : ____
Solution: 77.1

Problem: Reported growth, compound `O=C(O)CCCN1C(=O)CSC1=S` : ____
Solution: 93.9

Problem: Reported growth, compound `Nc1nc(=O)n([C@H]2CC=C(CO)O2)cc1F` : ____
Solution: 99.3

Problem: Reported growth, compound `Oc1cccc2c1NCCC2` : ____
Solution: 35.3

Problem: Reported growth, compound `COc1ccc2c(O)cc3c(c2c1)[C@H](CCl)CN3C(=O)c1cc2cc(NC(=O)CCN3CCOCC3)ccc2[se]1` : ____
Solution: -42.7

----------
Tested on: SN12C renal
assay method text: NCI-60 one-dose screen, 48 h
test parameters: 10 µM unless noted
Experimental: Growth inhibition of the SN12C human tumor cell line is measured as a screen for anti-cancer activity. Cells are grown in 96 well plates and exposed to the test compound for 48 hours. Compounds are tested at a single concentration, which is 10^-5 M for most compounds. The reported endpoint is percent growth (GI% or GIPRCNT), where numbers from 0 - 100% represent growth inhibition, and numbers from -100% - 0 represent cell death. For example, a value of 40 represents 60% growth inhibition. […]
This is part of a sample that, as a whole, favours compounds with a hit. Of some 83,000 tested, about 20% had one in any assay. Active and inactive are the calls of the source. The calls were made as follows: active = growth percent below 10; inactive = the rest.
Answer with one of the outcomes given here: active, inactive

Problem: In this assay, the call recorded for CC1=C([Se]CC(OC(=O)[C@@H](CO)NC(=O)OC(C)(C)C)C(=O)NCCCCCC(=O)OCc2ccccc2)C(=O)c2ccccc2C1=O (stereo not given in full) was what?
Solution: active

Problem: In this assay, the call recorded for `COc1ccc(/C=C2/CCc3cc4ccc(OC)cc4[o+]c32)c(O)c1` was what?
Solution: inactive

Problem: In this assay, the call recorded for `O=C1c2cccnc2C(=O)c2c1c(C(=O)OCCCN1CCOCC1)c1ccccn21` was what?
Solution: active

Problem: In this assay, the call recorded for `C=CCNc1nc(O)c(/C=C2\C=Nc3ncccc32)s1` was what?
Solution: inactive

Problem: In this assay, the call recorded for `COc1ccc(NC(=O)CSc2oc(-c3ccccc3)nc2S(=O)(=O)c2ccc(Cl)cc2)c(OC)c1` was what?
Solution: inactive

Problem: In this assay, the call recorded for `O=C1c2ccccc2-c2c1c1ccncc1c(=O)n2CCCn1ccnc1` was what?
Solution: inactive

Problem: In this assay, the call recorded for CCN1C(=O)N(CC)C2C1NC(=S)N2/N=C/C=C/c1ccccc1 (stereo not given) was what?
Solution: inactive

Problem: In this assay, the call recorded for `Clc1ccc(C2=Nn3c(nnc3-c3cc(Cl)cc(Cl)c3Cl)SC2)cc1` was what?
Solution: inactive

Problem: In this assay, the call recorded for `O=C1/C(=C/c2ccc(Br)cc2)COc2ccc(O)cc21` was what?
Solution: inactive

Problem: In this assay, the call recorded for `CCCN1C2CCC1/C(=C\c1ccc(OC)cc1)C(=O)/C2=C/c1ccc(OC)cc1` was what?
Solution: inactive
